# testedOn: T1, human C5 R885H-mmh (human, UniProt P01031 19-1676)
# T1 construct: also called human C5 variant R885H
# assayText: SPR, mAb captured via anti-hFc, 25C
metricName: 100 nM Human C5 R885H-mmh Bound (RU)

binder	measurement
H4H12163P (antibody, human IgG4, V domains shown, Human IgG4 Fc with S108P hinge mutation (H4H)) VH: EVQLVESGGDLVQPGGSLRLSCAASGFTFSSYAMNWVRQGPGKGLEWVSAISGRGDSTYYADSVKGRLTISRDNSKNTLYLQMNSLRAEDTAVYYCVKEGEQLVYWYFDLWGRGTLVTVSS VL: DIQMTQSPSSLSASVGDRVTITCRASQTISNFLHWYQQKPGKAPKLLIYAASSLQSGVPSRFSGSGSGTDFTLTISSLQPEDFSTYFCQQSYTTPLTFGGGTKVEIK	214
H4H12159P (antibody, human IgG4, V domains shown, Human IgG4 Fc with S108P hinge mutation (H4H)) VH: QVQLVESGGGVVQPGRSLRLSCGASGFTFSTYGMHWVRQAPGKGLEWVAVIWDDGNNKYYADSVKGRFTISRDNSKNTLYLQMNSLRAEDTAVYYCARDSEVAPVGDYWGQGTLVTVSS VL: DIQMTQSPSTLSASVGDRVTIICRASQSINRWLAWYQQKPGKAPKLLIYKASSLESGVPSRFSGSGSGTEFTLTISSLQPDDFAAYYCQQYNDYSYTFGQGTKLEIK	177
H4H12164P (antibody, human IgG4, V domains shown, Human IgG4 Fc with S108P hinge mutation (H4H)) VH: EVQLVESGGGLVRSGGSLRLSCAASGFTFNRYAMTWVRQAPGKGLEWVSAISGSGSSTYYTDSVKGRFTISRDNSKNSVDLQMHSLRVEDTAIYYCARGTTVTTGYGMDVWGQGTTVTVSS VL: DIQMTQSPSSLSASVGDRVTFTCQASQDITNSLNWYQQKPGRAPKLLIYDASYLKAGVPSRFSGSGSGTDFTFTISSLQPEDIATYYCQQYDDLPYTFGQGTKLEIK	295

Values compiled from patent US20170355757A1.
